systemTested: Cytochrome P450 2D6 (Homo sapiens, UniProt P10635)
Sequence (P10635 whole entry): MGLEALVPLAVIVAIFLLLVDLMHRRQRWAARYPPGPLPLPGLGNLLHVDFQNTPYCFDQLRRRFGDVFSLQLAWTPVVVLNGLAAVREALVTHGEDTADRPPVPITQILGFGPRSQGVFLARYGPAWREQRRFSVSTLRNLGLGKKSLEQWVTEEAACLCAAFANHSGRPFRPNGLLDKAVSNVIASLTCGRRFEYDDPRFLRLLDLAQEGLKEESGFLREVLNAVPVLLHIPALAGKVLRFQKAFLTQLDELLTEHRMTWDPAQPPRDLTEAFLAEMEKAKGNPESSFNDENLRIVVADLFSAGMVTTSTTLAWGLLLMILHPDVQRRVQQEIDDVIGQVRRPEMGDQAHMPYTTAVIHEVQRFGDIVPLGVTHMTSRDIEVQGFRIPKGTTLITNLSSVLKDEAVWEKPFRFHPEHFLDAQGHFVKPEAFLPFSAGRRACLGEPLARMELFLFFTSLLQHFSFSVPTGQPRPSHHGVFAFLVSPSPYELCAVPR
pIC50: −log10 of the molar value.
measurementLabel: pIC50

## Task Quick check: pIC50 of C[C@]1(Nc2ccc(C(=O)NO)cc2)CCN(c2ccc(Cl)cc2)C1=O ?
## Result < 4.30

###

systemTested: Cytochrome P450 3A4 (Homo sapiens)
Sequence (P08684 whole entry): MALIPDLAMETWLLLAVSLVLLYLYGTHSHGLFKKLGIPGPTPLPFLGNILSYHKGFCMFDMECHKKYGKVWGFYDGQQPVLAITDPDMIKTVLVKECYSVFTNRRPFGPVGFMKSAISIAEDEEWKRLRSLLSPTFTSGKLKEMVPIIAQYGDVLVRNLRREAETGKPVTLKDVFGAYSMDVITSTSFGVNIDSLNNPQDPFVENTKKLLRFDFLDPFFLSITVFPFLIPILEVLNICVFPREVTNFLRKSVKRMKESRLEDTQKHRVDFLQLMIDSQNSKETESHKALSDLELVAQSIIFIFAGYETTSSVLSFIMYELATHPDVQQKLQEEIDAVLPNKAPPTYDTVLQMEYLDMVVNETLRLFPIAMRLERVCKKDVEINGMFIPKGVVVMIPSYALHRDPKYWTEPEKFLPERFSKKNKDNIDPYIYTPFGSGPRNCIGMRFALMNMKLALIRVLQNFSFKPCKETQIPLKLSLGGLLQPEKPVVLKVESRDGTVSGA
pIC50: −log10 of the molar value.
measurementLabel: pIC50

## Task API: value(readout= pIC50, system= Cytochrome P450 3A4 (Homo sapiens), query= C[C@]1(Nc2ccc(C(=O)NO)cc2)CCN(c2ccc(Cl)cc2)C1=O )
## Result < 4.30

###

Below, each of the compounds is paired with its reported Cmax value.
assayExplanation: Cmax in ICR mouse at 100 mg/kg, po
Format: ADME, organism-based
Parameters: dose 100 mg/kg, route oral
reportedConditions: in vivo
Dear colleague, please return just the value in ng/mL, with no unit written.

>>> valuemeasured("C[C@]1(Nc2ccc(C(=O)NO)cc2)CCN(c2ccc(Cl)cc2)C1=O")
626

# ---- query compound ----
## Task Quick check: Cmax of O=C(NO)c1ccc(NC2CCN(c3ccc(Cl)cc3)C2=O)cc1 (configuration not stated) ?
## Result 57

###

systemTested: Cytochrome P450 2C9 (Homo sapiens)
Sequence (P11712 whole entry): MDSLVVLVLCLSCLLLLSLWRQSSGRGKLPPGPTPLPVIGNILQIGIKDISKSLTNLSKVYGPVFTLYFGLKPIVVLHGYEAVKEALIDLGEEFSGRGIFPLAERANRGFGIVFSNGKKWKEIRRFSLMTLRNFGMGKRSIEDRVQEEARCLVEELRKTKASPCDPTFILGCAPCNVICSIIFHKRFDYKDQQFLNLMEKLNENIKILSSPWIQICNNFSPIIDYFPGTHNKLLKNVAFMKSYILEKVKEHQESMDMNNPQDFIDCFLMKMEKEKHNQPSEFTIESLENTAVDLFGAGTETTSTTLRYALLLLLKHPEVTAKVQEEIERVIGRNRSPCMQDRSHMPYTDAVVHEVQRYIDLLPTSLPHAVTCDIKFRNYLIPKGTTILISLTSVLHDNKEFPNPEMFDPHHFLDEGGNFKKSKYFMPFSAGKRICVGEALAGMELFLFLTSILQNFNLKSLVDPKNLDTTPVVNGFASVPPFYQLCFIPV
measurementLabel: IC50

## Task Quick check: IC50 of C[C@]1(Nc2ccc(C(=O)NO)cc2)CCN(c2ccc(Cl)cc2)C1=O ?
## Result > 50 µM

###

Below, each of the molecules is paired with its reported IC50 value.
systemTested: Histone deacetylase 1 (Homo sapiens, UniProt Q13547)
Sequence (Q13547 whole entry): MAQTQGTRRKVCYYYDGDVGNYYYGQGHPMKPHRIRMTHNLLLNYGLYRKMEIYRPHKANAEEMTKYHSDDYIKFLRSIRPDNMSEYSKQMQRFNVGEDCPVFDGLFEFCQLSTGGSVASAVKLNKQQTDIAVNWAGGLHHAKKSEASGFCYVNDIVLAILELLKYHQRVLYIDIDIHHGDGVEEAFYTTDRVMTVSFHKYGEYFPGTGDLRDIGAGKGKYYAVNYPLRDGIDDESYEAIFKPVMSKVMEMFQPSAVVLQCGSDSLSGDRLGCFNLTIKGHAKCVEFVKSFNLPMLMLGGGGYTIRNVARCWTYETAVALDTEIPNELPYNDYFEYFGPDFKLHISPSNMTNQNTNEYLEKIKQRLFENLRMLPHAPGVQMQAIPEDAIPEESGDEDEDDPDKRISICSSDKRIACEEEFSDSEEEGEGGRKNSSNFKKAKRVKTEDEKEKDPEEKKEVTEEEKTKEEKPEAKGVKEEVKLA
Dear colleague, please return just the value in µM, with no unit written.

>>> valuemeasured("CC1(Nc2ccc(C(=O)NO)cc2)CCN(c2ccc3ncccc3c2)C1=O (centres undefined)")
6.02
>>> valuemeasured("O=C(NO)c1ccc(NC2CCN(Cc3ccccc3)C2=O)cc1 (centres undefined)")
11.7
>>> valuemeasured("O=C(NO)c1ccc(NC2CCN(c3cccc(Cl)c3)C2=O)cc1 (centres undefined)")
12.1

## Task Quick check: IC50 of O=C(NO)c1ccc(NC2CCN(c3ccc(Cl)cc3)C2)cc1 (centres undefined) ?
## Result 19.2

## Task Quick check: IC50 of N#Cc1ccc(N2CCC(Nc3ccc(C(=O)NO)cc3)C2=O)cc1 (centres undefined) ?
## Result 12.8

## Task Quick check: IC50 of CNc1ccc(C(=O)NO)cc1 ?
## Result 52.3

## Task Quick check: IC50 of O=C(NO)c1ccc(NC2CCN(c3ccc(Cl)c(Cl)c3)C2=O)cc1 (centres undefined) ?
## Result 15.9

###

systemTested: Protein deacetylase HDAC6 (Homo sapiens, UniProt Q9UBN7)
Sequence (Q9UBN7 whole entry): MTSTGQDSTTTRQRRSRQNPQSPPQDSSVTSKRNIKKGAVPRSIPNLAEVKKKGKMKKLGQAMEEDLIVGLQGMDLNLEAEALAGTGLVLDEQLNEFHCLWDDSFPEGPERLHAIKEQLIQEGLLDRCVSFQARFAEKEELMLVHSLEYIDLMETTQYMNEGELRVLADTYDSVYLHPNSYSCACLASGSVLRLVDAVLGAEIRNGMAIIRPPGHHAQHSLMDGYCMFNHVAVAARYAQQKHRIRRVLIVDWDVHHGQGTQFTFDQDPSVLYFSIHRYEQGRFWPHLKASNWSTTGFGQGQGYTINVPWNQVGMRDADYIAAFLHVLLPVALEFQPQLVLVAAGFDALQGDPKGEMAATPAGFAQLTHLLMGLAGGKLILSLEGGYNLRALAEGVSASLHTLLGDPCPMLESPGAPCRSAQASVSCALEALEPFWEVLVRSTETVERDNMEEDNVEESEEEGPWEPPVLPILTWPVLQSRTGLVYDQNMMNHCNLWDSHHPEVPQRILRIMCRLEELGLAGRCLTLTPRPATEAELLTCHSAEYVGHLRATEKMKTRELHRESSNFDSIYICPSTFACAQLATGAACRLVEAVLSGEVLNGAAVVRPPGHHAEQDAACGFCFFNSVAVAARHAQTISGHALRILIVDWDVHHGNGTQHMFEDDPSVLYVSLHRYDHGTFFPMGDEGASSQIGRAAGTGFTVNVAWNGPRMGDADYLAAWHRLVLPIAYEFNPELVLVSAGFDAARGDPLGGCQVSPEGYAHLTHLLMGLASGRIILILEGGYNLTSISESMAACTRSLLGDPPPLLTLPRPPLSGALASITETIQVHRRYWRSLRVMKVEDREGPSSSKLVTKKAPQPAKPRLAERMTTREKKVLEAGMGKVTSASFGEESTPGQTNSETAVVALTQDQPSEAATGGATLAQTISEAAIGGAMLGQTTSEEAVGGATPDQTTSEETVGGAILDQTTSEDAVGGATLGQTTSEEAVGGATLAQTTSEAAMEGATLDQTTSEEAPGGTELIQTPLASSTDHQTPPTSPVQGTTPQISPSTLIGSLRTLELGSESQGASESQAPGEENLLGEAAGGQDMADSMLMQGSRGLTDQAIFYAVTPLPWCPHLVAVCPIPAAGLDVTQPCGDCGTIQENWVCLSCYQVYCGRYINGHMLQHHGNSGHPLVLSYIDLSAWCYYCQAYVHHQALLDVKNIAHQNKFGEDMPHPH
measurementLabel: pIC50
Note: pIC50 values are expressed as the negative base-10 logarithm of concentration in M.

// solved cases for pIC50 follow
>>> valuemeasured("CS(=O)(=O)c1ccc(N2CCC(Nc3ccc(C(=O)NO)cc3)C2=O)cc1 (stereo unspecified)")
6.85
>>> valuemeasured("CNc1ccc(C(=O)NO)cc1")
5.75
>>> valuemeasured("O=C(NO)c1ccc(NC2CCN(Cc3ccccc3)C2=O)cc1 (stereo unspecified)")
6.29

## Task Quick check: pIC50 of O=C(NO)c1ccc(OC2CCN(c3ccccc3)C2=O)cc1 (stereo unspecified) ?
## Result 5.24

## Task Quick check: pIC50 of C[C@]1(Nc2ccc(C(=O)NO)cc2)CCN(c2ccc(Cl)cc2)C1=O ?
## Result 7.77
